Test: protein stability index of a GFP-peptide fusion (GPS, HEK-293T) (PSI 1-6); higher = more stable;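 note: 24-mer peptide tiles fused after GFP, lentivirally expressed, FACS-sorted into six equal bins by GFP/DsRed ratio, decoded by Illumina sequencing, PSI is the read-weighted mean bin number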
Details: treatment: DMSO; c terminus: a fixed tail appended
protein stability index overview
Answer field: number only, no words.

Solved entries (count: 5):
SEQUENCE_INPUT	protein stability index
FFFAVLHAIYSLSYPMRRSYRYKL [STEAP1]	2.31
ANAEDAQEFSDVERAIETLIKNFH [S100A14]	3.39
FSVTGGTEEKSSLLMSCLACDTWA [RPAIN]	2.27
DLSGLPLQSSKNSYSFQNPSSFDP [RNF180]	3.75
FSSERGPRMCRYVRERDRLGNEYP [CDC25A]	2.93

-- ask protein stability index lookup needed for PLTEQEESSPSHDRSRTVSASSTG [SRPK2] , thanks.
-- reply 5.25

-- ask Next entry: DINLSVRKLLNRHNIVFGDYTWTE [TRIP13]
-- reply 2.28

-- ask Next entry: IFMLCTLVLAIPLLLILVSYVHIL [OR10K2]
-- reply 3.35

-- ask Next entry: ISSTSTKRTYWPDLDAKIREALVL [PLD5]
-- reply 2.38

-- ask Next entry: MADADEGFGLAHTPLEPDAKDLPC [TBX5]
-- reply 5.24

-- ask Next entry: DSSHERTESQLTPCIRNVTSPTRQ [BTBD10]
-- reply 5.06

-- ask Next entry: FGIVEIDGMLYILGGEDGEKELIS [GAN]
-- reply 2.35

-- ask Next entry: RRATSGGKWPQVLFFPEGTCSNKK [LPCAT4]
-- reply 3.72

The origin of these recorded values is the supplement of paper PMC10567573.
